- Study Target: Integrin alpha-4/beta-1 (Homo sapiens, UniProt P05556+P13612)
- Sequence (P05556 whole entry): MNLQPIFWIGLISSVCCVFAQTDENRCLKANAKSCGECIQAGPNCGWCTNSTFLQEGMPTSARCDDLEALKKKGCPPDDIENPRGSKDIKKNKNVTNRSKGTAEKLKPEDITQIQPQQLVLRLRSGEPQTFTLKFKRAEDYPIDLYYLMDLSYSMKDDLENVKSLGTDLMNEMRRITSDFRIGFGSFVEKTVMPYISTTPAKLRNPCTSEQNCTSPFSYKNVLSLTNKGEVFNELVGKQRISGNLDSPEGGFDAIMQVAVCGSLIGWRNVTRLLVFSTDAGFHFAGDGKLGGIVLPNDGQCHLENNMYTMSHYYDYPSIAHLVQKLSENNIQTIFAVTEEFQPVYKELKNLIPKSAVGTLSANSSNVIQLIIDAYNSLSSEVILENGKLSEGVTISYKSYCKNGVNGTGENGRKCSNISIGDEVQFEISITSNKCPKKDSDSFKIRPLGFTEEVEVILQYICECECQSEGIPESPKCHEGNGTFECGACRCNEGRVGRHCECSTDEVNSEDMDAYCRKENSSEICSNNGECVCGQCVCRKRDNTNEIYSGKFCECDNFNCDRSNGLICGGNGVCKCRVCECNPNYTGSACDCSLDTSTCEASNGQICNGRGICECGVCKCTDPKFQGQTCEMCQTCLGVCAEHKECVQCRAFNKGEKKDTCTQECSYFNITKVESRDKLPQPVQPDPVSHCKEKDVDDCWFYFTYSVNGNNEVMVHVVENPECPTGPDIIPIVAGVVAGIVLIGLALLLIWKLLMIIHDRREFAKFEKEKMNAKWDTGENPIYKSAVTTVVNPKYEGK
- Sequence (P13612 whole entry): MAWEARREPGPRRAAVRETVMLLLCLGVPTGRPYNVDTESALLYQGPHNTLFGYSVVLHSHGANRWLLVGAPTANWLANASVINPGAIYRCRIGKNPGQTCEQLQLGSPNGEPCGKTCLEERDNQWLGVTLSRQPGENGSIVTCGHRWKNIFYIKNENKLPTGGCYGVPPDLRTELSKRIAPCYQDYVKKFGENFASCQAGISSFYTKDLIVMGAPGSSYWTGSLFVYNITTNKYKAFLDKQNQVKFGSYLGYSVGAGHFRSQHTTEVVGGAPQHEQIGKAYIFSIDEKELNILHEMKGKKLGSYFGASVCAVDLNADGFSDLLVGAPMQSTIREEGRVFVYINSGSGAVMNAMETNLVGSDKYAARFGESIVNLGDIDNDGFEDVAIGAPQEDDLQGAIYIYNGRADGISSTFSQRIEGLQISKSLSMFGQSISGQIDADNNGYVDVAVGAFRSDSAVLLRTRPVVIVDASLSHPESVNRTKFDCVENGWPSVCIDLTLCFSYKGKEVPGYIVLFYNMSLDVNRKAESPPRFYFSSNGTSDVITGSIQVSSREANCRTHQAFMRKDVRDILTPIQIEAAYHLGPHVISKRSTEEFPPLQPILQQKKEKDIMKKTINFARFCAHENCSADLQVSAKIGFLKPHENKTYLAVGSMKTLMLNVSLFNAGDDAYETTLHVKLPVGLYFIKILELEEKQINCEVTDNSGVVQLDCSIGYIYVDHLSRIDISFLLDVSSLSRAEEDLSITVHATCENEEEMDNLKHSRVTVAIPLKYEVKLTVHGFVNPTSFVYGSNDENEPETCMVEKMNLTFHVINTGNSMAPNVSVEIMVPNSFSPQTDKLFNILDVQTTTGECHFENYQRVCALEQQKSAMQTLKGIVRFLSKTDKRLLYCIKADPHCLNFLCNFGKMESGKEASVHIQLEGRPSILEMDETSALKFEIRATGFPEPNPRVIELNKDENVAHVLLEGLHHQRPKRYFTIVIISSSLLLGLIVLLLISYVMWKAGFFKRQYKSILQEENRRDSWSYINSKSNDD
- Experimental Protocol: Inhibition of VLA-4 binding in Jurkat cells in the presence of Mg2+
- Format: cell-based
Value Kind: IC50 (nM)
Answer in nM, number only, no unit symbol.

As a guide, the following entries are already answered.
- Substance Smiles: "O=C(Nc1ccc(C[C@H](NC(=O)[C@@H]2CCCN2S(=O)(=O)c2ccccc2)C(=O)O)cc1)c1c(Cl)cncc1Cl"
  IC50 (nM): 0.13
- Substance Smiles: "C[C@@]1(C(=O)N[C@@H](Cc2ccc(NC(=O)C3=C(Cl)CC(=O)N=C3Cl)cc2)C(=O)O)CCCN1S(=O)(=O)c1cc(Cl)cc(Cl)c1"
  IC50 (nM): 0.08
- Substance Smiles: "C[C@@]1(C(=O)N[C@@H](Cc2ccc(NC(=O)c3c(Cl)ccnc3Cl)cc2)C(=O)O)CCCN1S(=O)(=O)c1cc(Cl)cc(Cl)c1"
  IC50 (nM): 0.11

Kindly review the next compound as well.
Annotate the compound `COc1ccnc(Cl)c1C(=O)Nc1ccc(C[C@H](NC(=O)[C@]2(C)CCCN2S(=O)(=O)c2cc(Cl)cc(Cl)c2)C(=O)O)cc1` with its measured IC50. 0.08

====

The entries below are paired with their reported pIC50.
- Study Target: Integrin alpha-4/beta-1 (Homo sapiens, UniProt P05556+P13612)
- Experimental Protocol: Inhibition of [125I]VCAM-Ig binding to VLA-4 of Jurkat cells in the presence of Mn2+
- Format: cell-based
Quick note: pIC50 values are minus log10 of concentrations in mol/L.

The examples below pair each entry with its known result.
- Substance Smiles: "C[C@@]1(C(=O)N[C@@H](Cc2ccc(NC(=O)c3c(Cl)ccnc3Cl)cc2)C(=O)O)CCCN1S(=O)(=O)c1cc(Cl)cc(Cl)c1"
  Data Value: 9.96
- Substance Smiles: "C[n+]1cc(Cl)c(C(=O)Nc2ccc(C[C@H](NC(=O)[C@]3(C)CCCN3S(=O)(=O)c3cc(Cl)cc(Cl)c3)C(=O)O)cc2)c(Cl)c1"
  Data Value: 9.72
- Substance Smiles: "O=C(Nc1ccc(C[C@H](NC(=O)[C@@H]2CCCN2S(=O)(=O)c2cc(Cl)cc(Cl)c2)C(=O)O)cc1)c1c(Cl)cncc1Cl"
  Data Value: 10.00

State, for Integrin alpha-4/beta-1 (Homo sapiens, UniProt P05556+P13612), measured pIC50 of the compound listed here: `COc1ccnc(Cl)c1C(=O)Nc1ccc(C[C@H](NC(=O)[C@]2(C)CCCN2S(=O)(=O)c2cc(Cl)cc(Cl)c2)C(=O)O)cc1` 9.89

====

- Experimental Protocol: Half life period was determined in Sprague-Dawley rats at a dose of 1 mg/kg by iv administration
- Assay type: ADME, organism-based
- Parameters: dose 1 mg/kg, route intravenous
- Details: rat, in vivo
Value Kind: half-life (h)
Numbers only; they are read as h.

// Input: `C[C@@]1(C(=O)N[C@@H](Cc2ccc(NC(=O)c3c(Cl)ccnc3Cl)cc2)C(=O)O)CCCN1S(=O)(=O)c1cc(Cl)cc(Cl)c1` . Output its half-life only. 1.7

====

- Study Target: Integrin alpha-4/beta-1 (Homo sapiens, UniProt P05556+P13612)
- Experimental Protocol: Dissociation from Very late antigen 4 (VLA-4)
- Type: protein-complex assay
Known Bound of a selection of compounds
Quick note: number first, unit second.

- Substance Smiles: "O=C(Nc1ccc(C[C@H](NC(=O)[C@@H]2CCCN2S(=O)(=O)c2cc(Cl)cc(Cl)c2)C(=O)O)cc1)c1c(Cl)cncc1Cl"
  Study Target: "Integrin alpha-4/beta-1 (Homo sapiens, UniProt P05556+P13612)"
  Bound: "62%"

Let's switch to this compound now.
Fetch value of Bound on Integrin alpha-4/beta-1 (Homo sapiens, UniProt P05556+P13612) for `C[C@@]1(C(=O)N[C@@H](Cc2ccc(NC(=O)c3cccnc3)cc2)C(=O)O)CCCN1S(=O)(=O)c1cc(Cl)cc(Cl)c1` . 12%

====

- Experimental Protocol: Oral bioavailability in Sprague-Dawley rats at a dose of 2 mg/kg by po administration
- Format: ADME, organism-based
- Details: rat, in vivo
Value Kind: bioavailability (%)
Output spec: scalar in %, unitless text.

Tell me bioavailability reported for `C[C@@]1(C(=O)N[C@@H](Cc2ccc(NC(=O)c3c(Cl)ccnc3Cl)cc2)C(=O)O)CCCN1S(=O)(=O)c1cc(Cl)cc(Cl)c1` 1.6

====

- Experimental Protocol: Half life period was determined in rhesus monkey at a dose of 1 mg/kg by iv administration
- Format: ADME, organism-based
- Set-up: dose 1 mg/kg, route intravenous
- Details: cercopithecidae, in vivo
Value Kind: half-life
Value and unit, in that order.

State its half-life: `C[C@@]1(C(=O)N[C@@H](Cc2ccc(NC(=O)c3c(Cl)ccnc3Cl)cc2)C(=O)O)CCCN1S(=O)(=O)c1cc(Cl)cc(Cl)c1` 138 min

====

- Experimental Protocol: Plasma clearance was determined in Beagle dog at a dose of 1 mg/kg by iv administration
- Type: ADME, organism-based, Canis lupus familiaris
- Design: dose 1 mg/kg, route intravenous
- Details: read-out: Clp
Value Kind: clearance (mL/min/kg)
# unit: mL/min/kg | format: bare number

# return recorded clearance for input `C[C@@]1(C(=O)N[C@@H](Cc2ccc(NC(=O)c3c(Cl)ccnc3Cl)cc2)C(=O)O)CCCN1S(=O)(=O)c1cc(Cl)cc(Cl)c1` 32

====

- Experimental Protocol: Oral bioavailability in rhesus monkey at a dose of 2 mg/kg by po administration
- Type: ADME, organism-based, Macaca mulatta
- Details: in vivo
Value Kind: bioavailability (%)
Give the value in % but do not write % after it.

For `C[C@@]1(C(=O)N[C@@H](Cc2ccc(NC(=O)c3c(Cl)ccnc3Cl)cc2)C(=O)O)CCCN1S(=O)(=O)c1cc(Cl)cc(Cl)c1` , write its bioavailability. 4

====

- Study Target: Integrin alpha-4/beta-1 (Homo sapiens, UniProt P05556+P13612)
- Experimental Protocol: Dissociation from Very late antigen 4 (VLA-4)
- Type: protein-complex assay
Value Kind: Bound (%)
Just the number please, in %, no unit attached.

Guide cases for Bound, answers given:
- Substance Smiles: "O=C(Nc1ccc(C[C@H](NC(=O)[C@@H]2CCCN2S(=O)(=O)c2ccccc2)C(=O)O)cc1)c1c(Cl)cncc1Cl"
  Data Value: 19
- Substance Smiles: "C[C@@]1(C(=O)N[C@@H](Cc2ccc(NC(=O)c3c(Cl)ccnc3Cl)cc2)C(=O)O)CCCN1S(=O)(=O)c1cc(Cl)cc(Cl)c1"
  Data Value: 57

For the compound `COc1ccnc(Cl)c1C(=O)Nc1ccc(C[C@H](NC(=O)[C@]2(C)CCCN2S(=O)(=O)c2cc(Cl)cc(Cl)c2)C(=O)O)cc1` , give its reported Bound. 40

====

- Study Target: Integrin alpha-4/beta-1 (Homo sapiens, UniProt P05556+P13612)
- Experimental Protocol: Inhibition of [125I]VCAM-Ig binding to VLA-4 of Jurkat cells in the presence of Mn2+
- Format: cell-based
Value Kind: pIC50
Scale note: pIC50 = -log10(concentration in M).

- Substance Smiles: "C[C@@]1(C(=O)N[C@@H](Cc2ccc(NC(=O)c3c(Cl)cccc3Cl)cc2)C(=O)O)CCCN1S(=O)(=O)c1cc(Cl)cc(Cl)c1"
  Value Kind: "pIC50"
  Data Value: 9.68

Consider the molecule `C[n+]1ccc(C(=O)Nc2ccc(C[C@H](NC(=O)[C@]3(C)CCCN3S(=O)(=O)c3cc(Cl)cc(Cl)c3)C(=O)O)cc2)c(Cl)c1` and give its recorded pIC50. 9.80

Item `O=C(Nc1ccc(C[C@H](NC(=O)[C@@H]2CCCN2S(=O)(=O)c2cccc(Cl)c2)C(=O)O)cc1)c1c(Cl)cncc1Cl` : provide pIC50 10.05

Give reported pIC50 value for `COc1cc(CN2CCCC2)cc(OC)c1-c1ccc(C[C@H](NC(=O)[C@]2(C)CCCN2S(=O)(=O)c2cc(Cl)cc(Cl)c2)C(=O)O)cc1` 10.00

====

- Study Target: Integrin alpha-4/beta-1 (Homo sapiens, UniProt P05556+P13612)
- Experimental Protocol: Inhibition of VLA-4 binding in Jurkat cells in the presence of Mg2+
- Type: cell-based
Known IC50 of a selection of molecules
Expressed in nM, but write only the number.

Sample answers from the record:
- Substance Smiles: "O=C(Nc1ccc(C[C@H](NC(=O)[C@@H]2CCCN2S(=O)(=O)c2cc(Cl)cc(Cl)c2)C(=O)O)cc1)c1c(Cl)cncc1Cl"
  Study Target: "Integrin alpha-4/beta-1 (Homo sapiens, UniProt P05556+P13612)"
  IC50 (nM): 0.07
- Substance Smiles: "C[C@@]1(C(=O)N[C@@H](Cc2ccc(NC(=O)c3cccnc3)cc2)C(=O)O)CCCN1S(=O)(=O)c1cc(Cl)cc(Cl)c1"
  Study Target: "Integrin alpha-4/beta-1 (Homo sapiens, UniProt P05556+P13612)"
  IC50 (nM): 0.25
- Substance Smiles: "COc1cccc(OC)c1-c1ccc(C[C@H](NC(=O)[C@]2(C)CCCN2S(=O)(=O)c2cc(Cl)cc(Cl)c2)C(=O)O)cc1"
  Study Target: "Integrin alpha-4/beta-1 (Homo sapiens, UniProt P05556+P13612)"
  IC50 (nM): 0.09

Report IC50 for `COc1cc(CN2CCCC2)cc(OC)c1-c1ccc(C[C@H](NC(=O)[C@]2(C)CCCN2S(=O)(=O)c2cc(Cl)cc(Cl)c2)C(=O)O)cc1` 0.09

// provenance: ChEMBL document CHEMBL1145733
